System: Human immunodeficiency virus 1
Experiment Description: Effective concentration required to achieve 50% protection of MT-4 cells against the cytopathic effect of HIV-1.
Type: functional, organism-based, MT4
Experimental Parameters: Human immunodeficiency virus 1, MT4
pIC50: −log10 of the molar value.
Metric Name: pIC50

CC(C)=CCN1CCn2c(=O)[nH]c3ccc(Cl)c(c32)C1C (stereo unspecified) ... 6.84
CC(C)=CCN1CCn2c(=O)[nH]c3cccc(c32)C1C (stereo unspecified) ... 4.92
CC(C)=CCN1Cc2cccc3[nH]c(=S)n(c23)C(C)C1C (stereo unspecified) ... 5.65

* * *

Tested on: MT4
Experiment Description: Effective concentration of compound required to achieve 50% protection of MT-4 cells against the cytopathic effect of HIV-1 number of experiments = 24
Assay type: functional, cell-based
Experimental Parameters: Homo sapiens
Metric Name: IC50

C=C(C)CN1Cc2cccc3[nH]c(=O)n(c23)CC1C (stereo unspecified) ... 34.7 µM
